- Target Under Test: Cholecystokinin receptor type A (Homo sapiens, UniProt P32238)
- Sequence (P32238 whole entry): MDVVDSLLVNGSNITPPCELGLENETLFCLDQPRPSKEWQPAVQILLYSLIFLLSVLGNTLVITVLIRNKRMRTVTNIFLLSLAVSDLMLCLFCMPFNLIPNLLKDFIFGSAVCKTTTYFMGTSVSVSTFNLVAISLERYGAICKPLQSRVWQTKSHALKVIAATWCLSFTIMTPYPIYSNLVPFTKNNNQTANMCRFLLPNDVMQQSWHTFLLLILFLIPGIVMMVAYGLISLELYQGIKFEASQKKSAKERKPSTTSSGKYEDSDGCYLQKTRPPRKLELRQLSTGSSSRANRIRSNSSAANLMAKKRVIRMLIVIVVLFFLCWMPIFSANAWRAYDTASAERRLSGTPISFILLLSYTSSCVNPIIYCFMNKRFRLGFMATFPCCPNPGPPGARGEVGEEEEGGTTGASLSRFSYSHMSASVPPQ
- Test Protocol: Displacement of [3H]L-364718 from human recombinant CCK1 receptor expressed in CHO-K1 cells
- Format: cell-based
Observable: Ki (nM)

{"columns": ["Structure As Smiles", "Ki, nM"],
 "data": [
  ["CC(C)(C)C(=O)CN1C(=O)N(CC(=O)Nc2cccc(-c3nc(=O)o[nH]3)c2)C(=O)N(C2CCCCCC2)c2ccccc21", 117],
  ["Cc1nc(-c2cccc(NC(=O)CN3C(=O)N(CC(=O)C(C)(C)C)c4ccccc4N(C4CCCCC4)C3=O)c2)cs1", 1550],
  ["Cc1cccc(NC(=O)CN2C(=O)N(CC(=O)N3CCCC3)c3ccccc3N(C3CCCCCC3)C2=O)c1", 617],
  ["CN(c1cccc(NC(=O)CN2C(=O)N(CC(=O)C(C)(C)C)c3ccccc3N(C3CCCCC3)C2=O)c1)c1nn[nH]n1", 2090],
  ["CNc1cccc(NC(=O)CN2C(=O)N(CC(=O)C(C)(C)C)c3ccccc3N(C3CCCCC3)C2=O)c1", 2340],
  ["CC(C)(C)C(=O)CN1C(=O)N(CC(=O)Nc2cccc(-c3nc(=O)o[nH]3)c2)C(=O)N(C2CCCCC2)c2ccccc21", 316]
]}

(I) CC(C)(C)C(=O)CN1C(=O)N(CC(=O)Nc2cccc(SCC(=O)O)c2)C(=O)N(C2CCCCCC2)c2ccccc21
(II) CC(C)(C)C(=O)CN1C(=O)N(CCCC(=O)Nc2cccc(-c3nc(=O)o[nH]3)c2)C(=O)N(C2CCCCC2)c2ccccc21
(III) CC(C)(C)C(=O)CN1C(=O)N(CC(=O)Nc2cccc(CC(=O)O)c2)C(=O)N(C2CCCCCC2)c2ccccc21
(IV) Cc1cccc(NC(=O)CN2C(=O)N(CC(=O)C(C)(C)C)c3ccccc3N(C3CCCCCC3)C2=O)c1
(V) CC(C)(C)C(=O)CN1C(=O)N(CC(=O)Nc2cccc(CCC(=O)O)c2)C(=O)N(C2CCCCC2)c2ccccc21
In: Put the items in order so that reported Ki rises from first to last. Reply with the labels, ordered as the question asks.
Out: II, I, IV, V, III
(II: 72.4 nM, I: 282 nM, IV: 447 nM, V: 2340 nM, III: 3890 nM)

----------
- Target Under Test: Cholecystokinin receptor type A (Cavia porcellus)
- Test Protocol: Agonist activity at CCK1 receptor assessed as stimulation of contraction in guinea pig gallbladder at 30 uM relative to CCK8
- Type: functional
The following molecules are shown together with reported Activity values.

Solved cases below.
{"columns": ["Molecule", "Activity"],
 "data": [
  ["CC(C)N(C(=O)CN1C(=O)C(NC(=O)Nc2ccccc2)C(=O)N(c2ccccc2)c2ccccc21)c1ccccc1 (centres undefined)", "86%"],
  ["CC(C)N(C(=O)CN1C(=O)C(NC(=O)Nc2cccc(C(=O)O)c2)C(=O)N(c2ccccc2)c2ccccc21)c1ccccc1 (centres undefined)", "102%"]
]}

Please examine the following record next.
In: Need Activity of CC(C)N(C(=O)CN1C(=O)C(CC(=O)Nc2ccccc2)C(=O)N(c2ccccc2)c2ccccc21)c1ccccc1 (centres undefined) , thanks.
Out: 50%

----------
- Target Under Test: Gastrin/cholecystokinin type B receptor (Homo sapiens, UniProt P32239)
- Sequence (P32239 whole entry): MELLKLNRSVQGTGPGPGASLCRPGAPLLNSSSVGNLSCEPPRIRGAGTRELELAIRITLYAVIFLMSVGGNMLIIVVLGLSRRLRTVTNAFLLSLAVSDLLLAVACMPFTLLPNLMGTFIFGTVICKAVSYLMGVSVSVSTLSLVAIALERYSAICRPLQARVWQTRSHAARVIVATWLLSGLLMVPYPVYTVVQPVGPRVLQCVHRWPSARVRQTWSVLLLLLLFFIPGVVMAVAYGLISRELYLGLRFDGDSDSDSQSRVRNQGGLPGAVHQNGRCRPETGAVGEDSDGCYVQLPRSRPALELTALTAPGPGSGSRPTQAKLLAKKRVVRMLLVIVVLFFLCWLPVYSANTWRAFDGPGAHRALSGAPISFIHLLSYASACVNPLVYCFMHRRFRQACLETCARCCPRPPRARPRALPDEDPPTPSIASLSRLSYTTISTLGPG
- Test Protocol: Displacement of [125I]BH-CCK-8S from human recombinant CCK2 receptor expressed in NIH3T3 cells
- Format: cell-based
Observable: Ki (nM)

Some compounds with known Ki results, for comparison:
{"columns": ["Structure As Smiles", "Ki (nM)"],
 "data": [
  ["CNc1cccc(NC(=O)CN2C(=O)N(CC(=O)C(C)(C)C)c3ccccc3N(C3CCCCC3)C2=O)c1", 9.55],
  ["CC(C)(C)C(=O)CN1C(=O)N(CC(=O)Nc2cccc(-c3nc(=O)o[nH]3)c2)C(=O)N(C2CCCCC2)c2ccccc21", 1.2]
]}

(A) CC(C)(C)C(=O)CN1C(=O)N(CC(=O)Nc2cccc(SCC(=O)O)c2)C(=O)N(C2CCCCCC2)c2ccccc21
(B) CC(C)(C)C(=O)CN1C(=O)N(CC(=O)Nc2cccc(-c3nc(=O)o[nH]3)c2)C(=O)N(C2CCCCCC2)c2ccccc21
(C) CC(C)(C)C(=O)CN1C(=O)N(CC(=O)Nc2cccc(CC(=O)O)c2)C(=O)N(C2CCCCCC2)c2ccccc21
In: Endpoint returns the given compounds ordered by ascending Ki. Please reply with the labels ordered as requested. Many thanks.
Out: B, A, C
